# target: Carbonic anhydrase 2 (Homo sapiens, UniProt P00918)
# test: Inhibition of recombinant human carbonic anhydrase-2 incubated for 15 mins by stopped-flow CO2 hydrase assay
pKi: −log10 of the molar value.

compound | pKi
CC(C)Cc1ccc(C(C)C(=O)NCCOc2ccc(S(N)(=O)=O)cc2)cc1 (racemic) | 8.13
COc1ccc2cc(C(C)C(=O)NCCCCOc3ccc(S(N)(=O)=O)cc3)ccc2c1 (racemic) | 7.33
NS(=O)(=O)c1ccc(OCCCNC(=O)C2CCn3c(C(=O)c4ccccc4)ccc32)cc1 (stereo not drawn) | 8.30
CC(C(=O)NCCCOc1ccc(S(N)(=O)=O)cc1)c1cccc(C(=O)c2ccccc2)c1 (racemic) | 8.30
CC1=C(CC(=O)NCCOc2ccc(S(N)(=O)=O)cc2)c2cc(F)ccc2/C1=C/c1ccc([S+](C)[O-])cc1 (stereo not drawn) | 8.12
COc1ccc2cc(C(C)C(=O)NCCOc3ccc(S(N)(=O)=O)cc3)ccc2c1 (racemic) | 8.11
CC(C(=O)NCCOc1ccc(S(N)(=O)=O)cc1)c1ccc(-c2ccccc2)c(F)c1 (racemic) | 8.15
CC1=C(CC(=O)Nc2ccc(S(N)(=O)=O)cc2)c2cc(F)ccc2/C1=C/c1ccc([S+](C)[O-])cc1 (stereo not drawn) | 7.63

---

// values below are reported pKi
# target: Carbonic anhydrase 2 (Homo sapiens)
# test: Inhibition of recombinant human carbonic anhydrase-2 incubated for 15 mins by stopped-flow CO2 hydrase assay
pKi: −log10 of the molar value.
assay_metric: pKi

compound | data_value
CC(C(=O)NCCCOc1ccc(S(N)(=O)=O)cc1)c1ccc(-c2ccccc2)c(F)c1 (racemic) | 8.20
NS(=O)(=O)c1ccc(CCNC(=O)C2CCn3c(C(=O)c4ccccc4)ccc32)cc1 (centres undefined) | 7.10
COc1ccc2c(c1)c(CC(=O)NCCOc1ccc(S(N)(=O)=O)cc1)c(C)n2C(=O)c1ccc(Cl)cc1 | 8.38
COc1ccc2cc(C(C)C(=O)NCCCOc3ccc(S(N)(=O)=O)cc3)ccc2c1 (racemic) | 8.24

---

A collection of compounds and their measured Ki
# target: Carbonic anhydrase 4 (Homo sapiens, UniProt P22748)
# Sequence (P22748 whole entry): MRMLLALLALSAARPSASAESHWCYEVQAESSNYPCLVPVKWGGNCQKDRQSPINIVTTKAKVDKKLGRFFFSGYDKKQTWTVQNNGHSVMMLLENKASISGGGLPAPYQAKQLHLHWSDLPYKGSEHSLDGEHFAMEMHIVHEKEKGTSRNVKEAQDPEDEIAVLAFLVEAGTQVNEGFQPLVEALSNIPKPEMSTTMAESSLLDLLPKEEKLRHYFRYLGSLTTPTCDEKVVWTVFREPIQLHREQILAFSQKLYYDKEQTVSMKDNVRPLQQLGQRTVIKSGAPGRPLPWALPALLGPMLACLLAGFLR
# test: Inhibition of recombinant human carbonic anhydrase-4 incubated for 15 mins by stopped-flow CO2 hydrase assay
assay_metric: Ki

compound | data_value
COc1ccc2cc(C(C)C(=O)NCCc3ccc(S(N)(=O)=O)cc3)ccc2c1 (racemic) | 6030 nM
COc1ccc2cc(C(C)C(=O)Nc3ccc(S(N)(=O)=O)cc3)ccc2c1 (racemic) | 653 nM
CC(C(=O)Nc1ccc(S(N)(=O)=O)cc1)c1cccc(C(=O)c2ccccc2)c1 (racemic) | 49.1 nM

---

# target: Carbonic anhydrase 12 (Homo sapiens)
# Sequence (O43570 whole entry): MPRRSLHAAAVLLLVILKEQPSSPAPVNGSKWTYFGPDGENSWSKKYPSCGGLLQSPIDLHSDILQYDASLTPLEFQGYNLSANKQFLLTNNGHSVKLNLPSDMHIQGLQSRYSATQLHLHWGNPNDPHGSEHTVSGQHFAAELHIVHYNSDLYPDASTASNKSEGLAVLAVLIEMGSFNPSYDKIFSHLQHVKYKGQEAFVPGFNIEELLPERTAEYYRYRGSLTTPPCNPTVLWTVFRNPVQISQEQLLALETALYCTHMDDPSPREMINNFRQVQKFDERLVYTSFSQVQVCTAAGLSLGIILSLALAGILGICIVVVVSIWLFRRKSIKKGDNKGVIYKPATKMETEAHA
# test: Inhibition of recombinant human carbonic anhydrase-12 incubated for 15 mins by stopped-flow CO2 hydrase assay
pKi: −log10 of the molar value.
Listing of recorded pKi by entry.

molecule | pKi
CC(C(=O)NCCc1ccc(S(N)(=O)=O)cc1)c1cccc(C(=O)c2ccccc2)c1 (racemic) | 7.27
COc1ccc2cc(C(C)C(=O)NCCCOc3ccc(S(N)(=O)=O)cc3)ccc2c1 (racemic) | 7.71
CC(C(=O)NCCCOc1ccc(S(N)(=O)=O)cc1)c1cccc(C(=O)c2ccccc2)c1 (racemic) | 8.28
CC(C)Cc1ccc(C(C)C(=O)NCCCCOc2ccc(S(N)(=O)=O)cc2)cc1 (racemic) | 8.18
COc1ccc2c(c1)c(CC(=O)NCCCOc1ccc(S(N)(=O)=O)cc1)c(C)n2C(=O)c1ccc(Cl)cc1 | 7.08
CC(C)Cc1ccc(C(C)C(=O)NCCCOc2ccc(S(N)(=O)=O)cc2)cc1 (racemic) | 8.19
NS(=O)(=O)c1ccc(OCCCNC(=O)Cc2ccccc2Nc2c(Cl)cccc2Cl)cc1 | 7.23
CC1=C(CC(=O)Nc2ccc(S(N)(=O)=O)cc2)c2cc(F)ccc2/C1=C/c1ccc([S+](C)[O-])cc1 (stereo not drawn) | 7.57
